Each recorded value in this set is attributed to patent US20050009820A1.

Reported values of IC50 for individual entries
target_under_test: mGluR1 receptor (Homo sapiens, UniProt Q13255)
Sequence (Q13255 19-1194): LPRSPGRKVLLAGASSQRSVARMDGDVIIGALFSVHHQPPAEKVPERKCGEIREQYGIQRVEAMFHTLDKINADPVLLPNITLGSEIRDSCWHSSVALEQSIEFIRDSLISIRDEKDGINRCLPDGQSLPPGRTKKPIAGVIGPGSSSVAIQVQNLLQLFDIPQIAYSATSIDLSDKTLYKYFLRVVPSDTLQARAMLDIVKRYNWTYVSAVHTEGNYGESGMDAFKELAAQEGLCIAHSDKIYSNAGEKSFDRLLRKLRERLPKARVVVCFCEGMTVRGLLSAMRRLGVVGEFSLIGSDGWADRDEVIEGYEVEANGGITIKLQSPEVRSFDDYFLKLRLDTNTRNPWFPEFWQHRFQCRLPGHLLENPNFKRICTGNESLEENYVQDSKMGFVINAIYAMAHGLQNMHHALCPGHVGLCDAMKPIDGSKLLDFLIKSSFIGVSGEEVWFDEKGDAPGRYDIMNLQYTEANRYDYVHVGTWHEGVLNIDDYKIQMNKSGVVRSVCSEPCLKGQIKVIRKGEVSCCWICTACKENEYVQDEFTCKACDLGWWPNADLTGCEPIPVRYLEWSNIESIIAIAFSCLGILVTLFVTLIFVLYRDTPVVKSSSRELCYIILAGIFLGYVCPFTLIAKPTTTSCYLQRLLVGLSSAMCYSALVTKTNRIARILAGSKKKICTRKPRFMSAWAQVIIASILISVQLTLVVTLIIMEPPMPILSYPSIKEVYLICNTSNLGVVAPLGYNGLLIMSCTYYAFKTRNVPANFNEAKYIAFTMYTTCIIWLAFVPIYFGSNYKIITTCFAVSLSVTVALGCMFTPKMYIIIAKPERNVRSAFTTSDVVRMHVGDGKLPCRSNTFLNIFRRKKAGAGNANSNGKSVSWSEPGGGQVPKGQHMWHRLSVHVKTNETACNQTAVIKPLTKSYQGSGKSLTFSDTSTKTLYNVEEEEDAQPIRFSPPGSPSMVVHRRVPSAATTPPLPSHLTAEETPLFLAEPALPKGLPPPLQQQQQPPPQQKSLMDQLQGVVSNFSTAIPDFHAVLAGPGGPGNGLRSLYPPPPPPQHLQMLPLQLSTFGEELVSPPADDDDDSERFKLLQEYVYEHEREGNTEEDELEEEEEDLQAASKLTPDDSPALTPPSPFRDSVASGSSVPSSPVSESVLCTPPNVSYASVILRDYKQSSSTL
assay_notes: Determination of the activity on the mGluR1 receptor (luciferase luminescence in mGluR1 receptor-expressing CHO cells stimulated with 1 mM glutamate)
experimental_conditions: 1 mM glutamate with the test substance, 37° C., 4 h, luminescence readout
Method: 1. Determination of the activity on the mGluR1 receptor mGluR1 receptor-expressing CHO cells are seeded in 96-well plates (Greiner, Frickenhausen, Germany) (20 000 cells/well) and cultivated in ultra CHO medium (Bio-Whittaker, Walkersville, Md., 10% fetal calf serum) for one day. […] The luminescence is measured after one minute using a camera (Hamamatsu, Japan). […]
Write it as a number; the unit nM goes unstated.

Solved entries:
[[record]]
molecule = "CCC1CCc2c(sc3cc(-c4nnn[nH]4)ccc3c2=O)C1 (stereo not drawn) [Example 1-3]"
target_under_test = "mGluR1 receptor (Homo sapiens, UniProt Q13255)"
reading = 9

[[record]]
molecule = "CCC1CCc2c(sc3cc(-c4noc(=O)[nH]4)ccc3c2=O)C1 (stereo not drawn) [Example 1-34]"
target_under_test = "mGluR1 receptor (Homo sapiens, UniProt Q13255)"
reading = 81

[[record]]
molecule = "CCC1CCc2c(sc3cc(N(C)CCOC)ccc3c2=O)C1 (stereo not drawn) [Example 3-21]"
target_under_test = "mGluR1 receptor (Homo sapiens, UniProt Q13255)"
reading = 22

[[record]]
molecule = "CCC1CCc2c(sc3cc(N4CCCCC4)c(F)cc3c2=O)C1 (stereo not drawn) [Example 3-23]"
target_under_test = "mGluR1 receptor (Homo sapiens, UniProt Q13255)"
reading = 28

[[record]]
molecule = "CC1(C)CCc2c(sc3cc(-c4cccnc4)ccc3c2=O)C1 [Example 1-31]"
target_under_test = "mGluR1 receptor (Homo sapiens, UniProt Q13255)"
reading = 31


// IC50 lookup, molecule = CCC1CCc2c(sc3cc(-c4cncnc4)ccc3c2=O)C1 (stereo not drawn) [Example 3-55] , result: 35

For this molecule ( CC1(C)CCc2c(sc3cc(-c4cccc(C#N)c4)ccc3c2=O)C1 [Example 1-27] ), measured IC50 is 23

Record CCC1CCc2c(sc3cc(-c4cccc(C#N)c4)ccc3c2=O)C1 (stereo not drawn) [Example 1-29] , field IC50: 21

response.value for CCC1CCc2c(sc3cc(N4CCCCC4)ccc3c2=O)C1 (stereo not drawn) [Example 3-22] (field: IC50) = 13

Just so you know, measured IC50 for CCC1CCc2c(sc3cc(-c4cccs4)ccc3c2=O)C1 (stereo not drawn) [Example 1-10] came out at 97

Briefly, IC50 measured for CCC(=O)Nc1ccc2c(=O)c3c(sc2c1)CC(CC)CC3 (stereo not drawn) [Example 3-49] : 35

Recorded IC50 (molecule CCC1CCc2c(sc3cc(N(C)S(=O)(=O)c4cccc(C#N)c4)ccc3c2=O)C1 (stereo not drawn) [Example 4-8] ): 25
